Biological target: human PTH1 receptor (Homo sapiens)
Sequence (Q03431 27-593): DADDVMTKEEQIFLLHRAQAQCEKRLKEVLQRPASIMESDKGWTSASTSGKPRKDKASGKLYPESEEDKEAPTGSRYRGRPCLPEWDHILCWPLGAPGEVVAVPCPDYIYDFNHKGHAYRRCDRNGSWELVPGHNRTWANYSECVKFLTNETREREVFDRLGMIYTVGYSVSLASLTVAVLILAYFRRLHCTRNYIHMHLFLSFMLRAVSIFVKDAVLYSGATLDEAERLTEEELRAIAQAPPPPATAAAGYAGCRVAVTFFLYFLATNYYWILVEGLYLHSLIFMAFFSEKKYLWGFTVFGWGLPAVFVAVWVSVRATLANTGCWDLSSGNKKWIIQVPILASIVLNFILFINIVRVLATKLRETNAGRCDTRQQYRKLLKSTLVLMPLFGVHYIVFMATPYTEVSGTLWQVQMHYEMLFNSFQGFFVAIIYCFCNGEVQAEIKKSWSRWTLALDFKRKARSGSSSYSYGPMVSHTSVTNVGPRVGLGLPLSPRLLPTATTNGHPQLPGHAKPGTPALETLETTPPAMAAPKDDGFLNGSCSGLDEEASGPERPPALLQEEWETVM
Experiment: In vitro cAMP signal activity in HKRK-B7 cells (LLC-PK1 cells overexpressing the human PTH1 receptor)
Format: cell-based
Details: HKRK-B7 cells; compound at 1×10^−3 M; cAMP produced as percentage of that produced by hPTH(1-34) at 100 nM
parameter: cAMP production activity (%)

>  <compound>
Cc1cc(C(=O)N2CCC(C)(O)CC2)cc(C)c1/C=C/S(=O)(=O)N1CCC2(CC1)N=C(c1ccc(Cl)c(OCCCC(F)(F)F)c1)NC2=O

>  <measurement_unit>
%

>  <numeric_readout>
77

$$$$
>  <compound>
CC(=O)Nc1ccc(CCS(=O)(=O)N2CCC3(CC2)N=C([C@H]2CC[C@@H](CC(F)(F)C(F)(F)F)CC2)NC3=O)c(C)c1

>  <measurement_unit>
%

>  <numeric_readout>
79

$$$$
>  <compound>
Cc1cc(N(C)C(N)=O)cc(C)c1CCS(=O)(=O)N1CCC2(CC1)N=C(c1cccc(SC(F)(F)F)c1)NC2=O

>  <measurement_unit>
%

>  <numeric_readout>
159

$$$$
>  <compound>
Cc1cc(C(=O)N2CCC(O)CC2)ccc1/C=C/S(=O)(=O)N1CCC2(CC1)N=C(c1cccc(OC(F)(F)F)c1)NC2=O

>  <measurement_unit>
%

>  <numeric_readout>
66

$$$$
>  <compound>
Cc1cc(C(=O)N2CCC(C)(O)CC2)cc(C)c1/C=C/S(=O)(=O)N1CCC2(CC1)N=C(c1ccc(OCC(F)(F)C(F)F)c(C(F)(F)F)c1)NC2=O

>  <measurement_unit>
%

>  <numeric_readout>
77

$$$$
>  <compound>
Cc1cc(N(C)C(N)=O)cc(C)c1CCS(=O)(=O)N1CCC2(CC1)N=C(C1CCC(C)CC1)N/C2=N/O (stereo not drawn)

>  <measurement_unit>
%

>  <numeric_readout>
84

$$$$

* * *

Listing of entries alongside the reported cAMP production activity (%).
Biological target: human PTH1 receptor (Homo sapiens)
Assay: In vitro cAMP signal activity in HKRK-B7 cells (LLC-PK1 cells overexpressing the human PTH1 receptor)
Format: cell-based
Conditions: HKRK-B7 cells; compound at 1×10^−3 M; cAMP produced as percentage of that produced by hPTH(1-34) at 100 nM

>  <molecule>
Cc1ccccc1C(=O)CS(=O)(=O)N1CCC2(CC1)N=C(C1CCCCC1)NC2=O

>  <cAMP production activity (%)>
23

$$$$
>  <molecule>
Cc1ccccc1CNS(=O)(=O)N1CCC2(CC1)N=C(C1CCC(C)CC1)NC2=O (stereo not shown)

>  <cAMP production activity (%)>
36

$$$$
>  <molecule>
O=C1NC(C2CCC(C(F)(F)F)CC2)=NC12CCN(S(=O)(=O)CCc1cccc3c1ccn3C[C@H](O)CO)CC2 (stereo partly shown)

>  <cAMP production activity (%)>
75

$$$$
>  <molecule>
Cc1ccc(NCCO)cc1CCS(=O)(=O)N1CCC2(CC1)N=C(C1CCCCC1)NC2=O

>  <cAMP production activity (%)>
72

$$$$

* * *

Target: human PTH1 receptor (Homo sapiens)
Assay: In vitro cAMP signal activity in HKRK-B7 cells (LLC-PK1 cells overexpressing the human PTH1 receptor)
Format: cell-based
Details: HKRK-B7 cells; compound at 1×10^−3 M; cAMP produced as percentage of that produced by hPTH(1-34) at 100 nM
parameter: cAMP production activity (%)

>  <compound>
COCCCCCCCC1=NC2(CCN(S(=O)(=O)CCc3c(C)cc(N(C)C(N)=O)cc3C)CC2)C(=O)N1 [Compound 1351]

>  <system_under_test>
human PTH1 receptor (Homo sapiens)

>  <measurement_unit>
%

>  <numeric_readout>
100

$$$$
>  <compound>
O=C1NC(C2CCCN(S(=O)(=O)Cc3ccccc3)C2)=NC12CCN(S(=O)(=O)c1cccc(Cl)c1)CC2 (stereo not shown) [Compound 42]

>  <system_under_test>
human PTH1 receptor (Homo sapiens)

>  <measurement_unit>
%

>  <numeric_readout>
27

$$$$
>  <compound>
Cc1cc(N2CCC2=O)ccc1/C=C/S(=O)(=O)N1CCC2(CC1)N=C(C1CCCCC1)NC2=O [Compound 572]

>  <system_under_test>
human PTH1 receptor (Homo sapiens)

>  <measurement_unit>
%

>  <numeric_readout>
36

$$$$
>  <compound>
CNC(=O)N(C)c1cc(C)c(/C=C/S(=O)(=O)N2CCC3(CC2)N=C(c2cccc(OC(F)(F)F)c2)NC3=O)c(C)c1 [Compound 1014]

>  <system_under_test>
human PTH1 receptor (Homo sapiens)

>  <measurement_unit>
%

>  <numeric_readout>
84

$$$$
>  <compound>
O=C(CCCOCc1ccccc1)N1CCCC(C2=NC3(CCN(S(=O)(=O)CCc4cccc5ccccc45)CC3)C(=O)N2)C1 (stereo not shown) [Compound 436]

>  <system_under_test>
human PTH1 receptor (Homo sapiens)

>  <measurement_unit>
%

>  <numeric_readout>
28

$$$$
>  <compound>
Cc1cc(C(=O)N(C)C)ccc1CCS(=O)(=O)N1CCC2(CC1)N=C(c1ccc(Cl)cc1C)NC2=O [Compound 128]

>  <system_under_test>
human PTH1 receptor (Homo sapiens)

>  <measurement_unit>
%

>  <numeric_readout>
57

$$$$
>  <compound>
Cc1cc(N2C(=O)CC[C@@H]2CO)ccc1/C=C/S(=O)(=O)N1CCC2(CC1)N=C(c1ccc(F)c(C(F)(F)F)c1)NC2=O [Compound 620]

>  <system_under_test>
human PTH1 receptor (Homo sapiens)

>  <measurement_unit>
%

>  <numeric_readout>
112

$$$$

Ref: patent US9169254B2
